Tested on: UO-31 renal
experimental-protocol: NCI tumour cell line growth inhibition, 48 h
Where a SMILES comes first, the peptide text is derived from it. [ ]: non-standard residue; d: D form. Phe(4-NO2) = N[CH](Cc1ccc([N+](=O)[O-])cc1)C(=O)O
value-type: TGI

COc1cc2c(cc1OCCCOS(C)(=O)=O)N=C[C@@H]1CCCN1C2=O has a reported TGI of > 100 µM

// recorded TGI for CC(C)(C)OC(=O)NC(Cc1ccc(O)cn1)C(=O)O (centres undefined) : > 100 µM

Memo: O=c1[nH]c(=O)c2cc3cc(C4CC(O)C(CO)O4)ccc3cc2[nH]1 (centres undefined) , reported TGI: 67 µM

The reported TGI of the compound O=C(OCc1ccc([N+](=O)[O-])cc1)N1c2ccccc2[C@@]23O[C@]24CCC[C@H]3C#C/C=C\C#C[C@H]14 was > 100 µM

Note to self: TGI recorded for COc1cc(O)c2c(c1)O[C@@H]1OCC[C@H]21 was > 100 µM

For CCCCNC(=O)C1C(=O)N(CCCC)C(=O)/C1=N\N (centres undefined) the compound record lists TGI as > 100 µM

Value of measured TGI for the entry CC(C)(C)[Si](C)(C)OC1[C@@H](O[Si](C)(C)C(C)(C)C)[C@@H](CNC(=O)NC(=O)CF)O[C@H]1n1cnc2c(NC(=O)Nc3ccccc3)ncnc21 (some centres undefined) : > 50 µM

// recorded TGI for CC1CC/C(=C\c2ccc(N(C)C)cc2)C2=C1C(c1ccc(N(C)C)cc1)NC(=S)N2 (centres undefined) : > 100 µM

For record O=C(NNC1=NCCCCN1)Nc1ccc(Cl)cc1 the listed TGI is > 100 µM

Entry C#CCN(Cc1nc2cc(C(F)(F)F)ccc2nc1-c1ccccc1)c1ccc(C)cc1 ; TGI = 45.5 µM

Reported TGI of O=C(OC1CCC2OOC1O2)c1ccc([N+](=O)[O-])cc1 (centres undefined) : > 100 µM

What the record says about COc1ccc(NC(=O)CC/C(CC(=O)c2ccco2)=N/NC(N)=S)cc1 : TGI is > 100 µM

Please fill in: TGI reported for Cc1ccc(C(=O)Cn2c(C(=O)/C=C/c3cccs3)nc3ccccc32)cc1 = > 100 µM

The reported TGI of the compound NC(=O)/C(=N\NC(=O)C[n+]1ccccc1)C1NC(=O)NC1=O (centres undefined) was > 100 µM

Note to self: TGI recorded for CONC(C)=O was > 100 µM

Sure, the documented TGI for Nc1ccc(Oc2ccc(C3(c4ccc(Oc5ccc(N)cc5)cc4)C4CC5CC(C4)CC3C5)cc2)cc1 is 21.4 µM

Lab note: Cc1[nH]c(=O)[nH]c(=O)c1/C=C/C(=O)NC(CO)CS(=O)Cc1ccccc1 (centres undefined) gave TGI of > 300 µM

Reported TGI of CCOC(=O)CCSc1nc2ccc(I)cc2c(=O)n1Cc1ccccc1 : 1.42 µM

Measured TGI of C[C@@H]1CCC([C@@H](C)[C@H]2CC[C@H]3[C@@H]4CC[C@H]5C[C@@H](O)CC[C@]5(C)[C@H]4CC[C@]23C)=NC1 : 46.3 µM

The recorded TGI for entry COc1cc2c(c(OC)c1OC)-c1ccc(OC)c(=O)cc1[C@@H](NC(C)=O)CC2 equals > 625 µM

Short answer for c1ccc(C(NC2=NCCO2)c2ccccc2)cc1 : TGI was > 10 µM

Reported TGI of Cc1nc(N2N=C(c3ccc(Cl)cc3)CCC2=O)sc1[N+](=O)[O-] : > 100 µM

compound CCN(CC)C1CCC(C2c3cc4c(cc3OC(N3CCOCC3)C2C)OCO4)CC1 (centres undefined) , TGI observed: > 100 µM

Lookup result for Nc1nc(Cl)cc(NCC(O)CO)n1 (centres undefined) ; measured TGI: > 100 µM

Lab book: TGI of Cn1ccc(C(=O)NCCN(CCNC(=O)c2ccn(C)c(=O)c2O)CCNC(=O)c2ccn(C)c(=O)c2O)c(O)c1=O noted as > 100 µM

TGI for CC[C@@H](C(=O)[C@H](C)[C@H](O)[C@@H](C)[C@H]1O[C@H]([C@@H](CC)C(=O)N(CC)CC)CC[C@H]1C)C1O[C@]2(C=C[C@@H](O)[C@]3(CC[C@@](C)([C@H]4CC[C@](O)(CC)[C@H](C)O4)O3)O2)[C@H](C)C[C@@H]1C (some centres undefined) is 7.94 µM

Entry CC(NC(=O)C(Cc1ccc([N+](=O)[O-])cc1)NC(=O)C(N)CCCCN)C(=O)NC(Cc1ccc([N+](=O)[O-])cc1)C(N)=O (centres undefined) (H-K[Phe(4-NO2)]A[Phe(4-NO2)]-NH2; configuration not given here) , TGI reported as > 66.6 µM

TGI measured on O=C1NC(=O)C(C(=O)C(=O)Nc2ccc(Cl)cc2Cl)C(=O)N1 = > 100 µM

The value of TGI measured for the compound COC(=O)c1ccccc1N1C(=O)Cc2ccccc2C1=O turned out to be > 100 µM
